Let's look at some binders and their measured Max % Inhibition at 200 nM, HEK-BlueIL33 NFκB Reporter Assay.
Molecular target: T1, IL1RAP on HEK-Blue IL1β / HEK-Blue IL33 reporter cells (UniProt Q9NPH3 21-570, limits assumed)
T1 sequence (looked up): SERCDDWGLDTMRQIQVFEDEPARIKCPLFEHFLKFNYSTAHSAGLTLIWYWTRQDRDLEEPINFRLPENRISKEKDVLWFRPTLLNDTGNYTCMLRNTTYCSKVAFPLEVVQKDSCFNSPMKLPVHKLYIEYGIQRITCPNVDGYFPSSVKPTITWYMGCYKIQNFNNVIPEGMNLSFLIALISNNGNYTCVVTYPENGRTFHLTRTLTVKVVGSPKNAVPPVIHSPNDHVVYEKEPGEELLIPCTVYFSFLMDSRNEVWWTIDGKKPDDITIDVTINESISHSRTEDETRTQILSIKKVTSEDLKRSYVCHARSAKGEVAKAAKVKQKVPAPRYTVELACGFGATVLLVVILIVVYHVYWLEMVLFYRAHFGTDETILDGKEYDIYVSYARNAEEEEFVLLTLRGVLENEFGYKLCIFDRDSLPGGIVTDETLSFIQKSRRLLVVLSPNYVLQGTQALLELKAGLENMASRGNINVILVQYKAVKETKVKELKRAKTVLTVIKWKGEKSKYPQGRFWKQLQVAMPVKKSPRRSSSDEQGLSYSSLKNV
Assay: cell-based or functional assay
Note: unit % is implicit; provide only the numeric part.

Worked examples, 3 binders total:
STLX2045 (antibody, V domains shown, Purified from hybridoma of immunized Alivamab mice; intact IgG; captured on anti-mouse IgG Fc sensors in Octet; kappa light chain; also called 74804_45C18A) VH: EVQLVESGGGLVKPGGSLRLACAATGFTFSNVWMSWVRQGSGKGLEWVGRIKSKADGGTIDYAAPVKGRFTISRDDSKNTLYLQMNSLKTEDTAMYYCTTGELLGFDYWGQGTLVTVSS VL: DIVMTQSPLSLPVTPGEPASISCRSGQSLLHSNGFNCLAWYLQKPGQSPQLLIYLGSNRASGVPDRFSGSGSGTDFTLKISRVEAEDVGVYYCMQTLQTPITFGQGTRLEIK = 98
STLX2025 (antibody, V domains shown, Purified from hybridoma of immunized Alivamab mice; intact IgG; captured on anti-mouse IgG Fc sensors in Octet; kappa light chain; also called 74804_25H09A) VH: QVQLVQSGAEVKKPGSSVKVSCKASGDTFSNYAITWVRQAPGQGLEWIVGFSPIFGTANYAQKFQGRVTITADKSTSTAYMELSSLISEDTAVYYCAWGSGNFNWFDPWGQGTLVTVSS VL: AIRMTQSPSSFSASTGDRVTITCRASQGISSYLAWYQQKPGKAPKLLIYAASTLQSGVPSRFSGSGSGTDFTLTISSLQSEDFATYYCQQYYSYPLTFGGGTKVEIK = 73
STLX2029 (antibody, V domains shown, Purified from hybridoma of immunized Alivamab mice; intact IgG; captured on anti-mouse IgG Fc sensors in Octet; kappa light chain; also called 74804_29D13A) VH: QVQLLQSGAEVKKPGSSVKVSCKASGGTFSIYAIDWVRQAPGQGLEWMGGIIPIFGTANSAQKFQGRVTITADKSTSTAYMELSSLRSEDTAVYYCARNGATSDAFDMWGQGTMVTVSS VL: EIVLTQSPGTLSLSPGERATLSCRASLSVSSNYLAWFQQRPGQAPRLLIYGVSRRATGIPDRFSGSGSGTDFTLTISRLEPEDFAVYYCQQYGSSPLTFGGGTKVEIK = 86

Could you now consider this next binder?
Max % Inhibition at 200 nM, HEK-BlueIL33 NFκB Reporter Assay recorded for this binder, STLX2012 (antibody, V domains shown, Purified from hybridoma of immunized Alivamab mice; intact IgG; captured on anti-mouse IgG Fc sensors in Octet; kappa light chain; also called 74804_12A21B) VH: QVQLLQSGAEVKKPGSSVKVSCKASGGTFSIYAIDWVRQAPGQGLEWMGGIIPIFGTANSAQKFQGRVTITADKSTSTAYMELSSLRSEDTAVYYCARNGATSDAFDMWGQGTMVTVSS VL: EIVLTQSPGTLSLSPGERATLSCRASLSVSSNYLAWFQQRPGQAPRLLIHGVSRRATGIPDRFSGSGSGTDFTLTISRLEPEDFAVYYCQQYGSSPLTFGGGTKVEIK , is 95
